- Tested on: UO-31
- ASSAY: NCI tumour cell line growth inhibition, 48 h
Calls of active or inactive are those of the source. Cut-off read from the data, not from the text of the source: active = GI50 up to about 1.1 µM and inactive = higher. Non-standard residues stand in square brackets, D forms with d. Residues, ends and D or L forms follow the SMILES beside them. *: point of attachment. NMeF = CN[CH](Cc1ccccc1)C(=O)O; NMeV = CN[CH](C(=O)O)C(C)C; Boc = CC(C)(C)OC(=O)*
Please provide measured GI50 for the entries that follow.

## Task # return recorded GI50 for input CN1CSC(=S)N(c2cccc(C(F)(F)F)c2)C1
## Result 26.4 µM (inactive)

## Task # return recorded GI50 for input O=C(Nc1ccccc1)c1cc(S(=O)(=O)n2ccnc2O)c(S)cc1Cl
## Result > 100 µM (inactive)

## Task # return recorded GI50 for input CCOC(=O)NC(Nc1ccc(S(=O)(=O)Nc2ccc(OC)nn2)cc1)(C(F)(F)F)C(F)(F)F
## Result > 100 µM (inactive)

## Task # return recorded GI50 for input CC1=C(C(=O)OC2CC3CCC2(C)C3(C)C)C2Nc3ccccc3N(C)C2O1 (stereo not given)
## Result 2.5 µM (inactive)

## Task # return recorded GI50 for input CC(=O)NC1=C(NCCC(C)C)C(=O)c2ccccc2C1=O
## Result > 50 µM (inactive)

## Task # return recorded GI50 for input O=C1c2ccccc2C(=O)N1CCCCCCNOCCCN1C(=O)c2ccccc2C1=O
## Result 34 µM (inactive)

## Task # return recorded GI50 for input CN(C)/C=N/c1nc2ncn(CCOC(=O)c3ccccc3)c2c(=O)[nH]1
## Result > 100 µM (inactive)

## Task # return recorded GI50 for input Nc1ncnc2c1cnn2Cc1cn(COCC(O)CO)nn1 (stereo not given)
## Result > 100 µM (inactive)

## Task # return recorded GI50 for input Cc1cc(C)[n+](CCOc2ccc(/C(=C(/Cl)c3ccccc3)c3ccccc3)cc2)c(C)c1.[O-][Cl+3]([O-])([O-])[O-]
## Result 14.8 µM (inactive)

## Task # return recorded GI50 for input CC(C)C(NC(=O)OC(C)(C)C)C(=O)N(C)C(Cc1ccccc1)C(=O)N(C)C(C(=O)N(C)C(C(=O)O)C(C)C)C(C)C (stereo not given) (Boc-V[NMeF][NMeV][NMeV]-OH; configuration not given here)
## Result > 100 µM (inactive)
